test system: PPARg:RXRa 270nM:90nM, anti-RXR (NR concentration 270 nM, RXRa partner concentration 90 nM); experiment: PBM binding z-score (relative to random genomic background probes); higher = stronger binding; sequences stand for … in GC…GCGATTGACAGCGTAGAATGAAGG
Mark Criterion not met for PBM binding z-score values under 3, and Criterion met for everything at or above.

Please review the following examples before continuing.
{"sequenceString": "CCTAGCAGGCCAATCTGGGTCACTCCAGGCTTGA", "answerLabel": "Criterion not met"}
{"sequenceString": "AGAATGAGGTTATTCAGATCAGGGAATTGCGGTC", "answerLabel": "Criterion not met"}
{"sequenceString": "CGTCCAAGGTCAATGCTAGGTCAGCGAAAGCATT", "answerLabel": "Criterion met"}
{"sequenceString": "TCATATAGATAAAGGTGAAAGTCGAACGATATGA", "answerLabel": "Criterion met"}

PBM binding z-score >= 3 for "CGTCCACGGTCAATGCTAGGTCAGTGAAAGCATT" ?
Criterion not met

PBM binding z-score >= 3 for "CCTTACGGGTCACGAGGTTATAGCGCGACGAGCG" ?
Criterion met

PBM binding z-score >= 3 for "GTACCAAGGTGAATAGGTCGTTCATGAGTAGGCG" ?
Criterion not met

PBM binding z-score >= 3 for "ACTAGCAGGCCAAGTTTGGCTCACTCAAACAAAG" ?
Criterion not met

PBM binding z-score >= 3 for "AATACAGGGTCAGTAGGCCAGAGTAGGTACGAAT" ?
Criterion met

PBM binding z-score >= 3 for "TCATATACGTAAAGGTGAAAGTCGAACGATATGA" ?
Criterion not met

PBM binding z-score >= 3 for "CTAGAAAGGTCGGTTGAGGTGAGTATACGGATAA" ?
Criterion not met

PBM binding z-score >= 3 for "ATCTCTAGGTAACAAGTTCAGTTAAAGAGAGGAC" ?
Criterion not met

PBM binding z-score >= 3 for "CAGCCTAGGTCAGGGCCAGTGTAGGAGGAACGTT" ?
Criterion not met

PBM binding z-score >= 3 for "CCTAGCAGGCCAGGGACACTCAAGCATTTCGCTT" ?
Criterion not met

---

tested on: RARa:RXR (NR concentration 270 nM, RXRa partner concentration 90 nM); test: PBM binding z-score (relative to random genomic background probes); higher = stronger binding; sequences stand for … in GC…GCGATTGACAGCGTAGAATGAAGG
Answer each item with its documented PBM binding z-score.
Numbers only.

{"sequenceString": "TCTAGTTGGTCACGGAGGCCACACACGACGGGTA", "PBM binding z-score": 0.748}
{"sequenceString": "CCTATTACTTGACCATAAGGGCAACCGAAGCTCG", "PBM binding z-score": 1.05}
{"sequenceString": "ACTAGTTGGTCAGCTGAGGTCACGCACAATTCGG", "PBM binding z-score": 4.84}
{"sequenceString": "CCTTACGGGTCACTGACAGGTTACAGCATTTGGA", "PBM binding z-score": 4.5}
{"sequenceString": "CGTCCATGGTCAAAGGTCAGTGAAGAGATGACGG", "PBM binding z-score": 5.38}

For every listed record, write down its PBM binding z-score.
1. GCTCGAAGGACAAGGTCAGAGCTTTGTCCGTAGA
2. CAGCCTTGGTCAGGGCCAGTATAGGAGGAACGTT
3. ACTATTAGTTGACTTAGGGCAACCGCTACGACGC

2.28
-0.84
0.605

For every listed record, write down its PBM binding z-score.
1. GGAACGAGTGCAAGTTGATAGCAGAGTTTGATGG
2. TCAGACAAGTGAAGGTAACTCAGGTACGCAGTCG
3. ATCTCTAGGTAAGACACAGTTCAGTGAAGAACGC

1. -0.297
2. 0.807
3. 0.786
